Experiment: qHTS of Nrf2 Activators: Hit Validation in Primary Assay; further: nearly all actives have a fitted effect of over 70% in size
Conditions: Nrf2/ARE reporter cell assay; activation; series mostly up to 46.1 µM
The campaign covered roughly 1,100 compounds. About 860 (78%) were called active. Inconclusive results (about 19%) are left out. The call rests on the fitted dose curve; in most records, active means well fitted activation curve with a large enough effect; inconclusive means small, poorly fitted or top-dose-only effect; inactive means flat fitted curve, though single readings scatter. So high a share suggests a set chosen from earlier hits. Some of the results follow.
Pick one: active, inactive

Field: example entries. Status: answers known.
SMILES_ENTRY	GROUP
c1ccc(-c2cc3c(ccc4nonc43)nn2)cc1	active
Clc1nc(-c2ccccc2)cc(-c2ccccc2)n1	active
CNS(=O)(=O)c1ccc2nc(NC(=O)/C=C/c3ccco3)sc2c1	active
O=c1oc2ccccc2cc1-c1nc2c(s1)CCc1ccccc1-2	active
N=c1oc2ccccc2cc1-c1nc(-c2ccccc2)cs1	active
O=c1nc2c(O)cccn2c2c1c(=O)[nH]c1ccccc12	active

Now for another entry.
State the result this test recorded for [O-][n+]1onc2c3cc(-c4ccccc4)nnc3ccc21 .
active

----------
Test: qHTS of Nrf2 Activators: Hit Validation in Primary Assay; further: nearly all actives have a fitted effect of over 70% in size; further: potency means the concentration at half of the fitted maximal effect
Conditions: Nrf2/ARE reporter cell assay; activation; series mostly up to 46.1 µM
The whole screen tested about 1,100 compounds, of which about 860 (78%) were called active. Another 19% or so got no clear call; they are omitted. The set was probably picked from earlier hits. Some of the results follow.
Listing of entries alongside the reported Potency.

SMILES_ENTRY	EXPERIMENTAL_VALUE
S=c1[nH]nc(-c2ccco2)n1/N=C/c1cccc(Cl)c1Cl	10.3 µM (active)
S=c1[nH]nc(-c2ccco2)n1/N=C/c1ccc(Br)s1	2.31 µM (active)
O=C(Nc1ccc2c(c1)C(=O)NC2=O)c1cccc(C(F)(F)F)c1	2.06 µM (active)
O=[N+]([O-])c1ccccc1/C=C/C=N/n1c(-c2ccco2)n[nH]c1=S	11.6 µM (active)
CCn1c(=N)n(CC(=O)c2cccc([N+](=O)[O-])c2)c2ccccc21	2.31 µM (active)
Cc1cc(Cl)cc2sc(NC(=O)c3ccco3)nc12	16.4 µM (active)
FC(F)(F)c1ccccc1Cc1c(-c2ccccc2)nc2c3ccccc3ccn12	14.6 µM (active)
N=c1n(CCN2CCOCC2)c2ccccc2n1CC(=O)c1cccc([N+](=O)[O-])c1	2.91 µM (active)

May I ask what Potency has been recorded for O=C(Nc1ccc2c(c1)C(=O)NC2=O)c1ccccc1 ?
20.6 µM (active)

Item COc1ccc(S(=O)(=O)N2CCN(C(=O)c3ccc([N+](=O)[O-])o3)CC2)cc1 has what recorded Potency?
5.8 µM (active)

----------
Assay: qHTS of Nrf2 Activators: Hit Validation in Primary Assay; further: nearly all actives have a fitted effect of over 70% in size
Details: Nrf2/ARE reporter cell assay; activation; series mostly up to 46.1 µM
Among all 1,100 compounds or so, about 860 (78%) were called active. About 19% were inconclusive and are not listed. Calls come from the whole dose curve; as a rule, active = well fitted activation curve with a large enough effect; inconclusive = small, poorly fitted or top-dose-only effect; inactive = flat fitted curve, though single readings scatter. So high a share suggests a set chosen from earlier hits. The list shows a part of the results.
Assign a class; possible classes are TRUE = active, FALSE = inactive

SMILES_ENTRY	GROUP
O=C(/C=C/c1ccccc1[N+](=O)[O-])N1CCc2ccccc2C1	TRUE
Cc1cccc(C)c1OCC(=O)N/N=C/C=C/c1ccco1	TRUE
C=C1C2=C(C(=O)N1OC)[C@@H](O)[C@@](C)(O)[C@@H](CCCCC)O2	TRUE
O=C(N/N=C\C=C\c1ccco1)c1cc(-c2ccc3ccccc3c2)n[nH]1	TRUE
Cc1cc(C)c(C#N)c(OCC(=O)c2ccc(Br)cc2)n1	TRUE
N#Cc1sc2nc(-c3ccccc3)cc(C(F)(F)F)c2c1N	TRUE

# outcome recorded in this test, key = CC(/C=C/c1ccco1)=N\NC(=O)CNc1ccc2ccccc2c1
TRUE

What did this assay record as the result for COC(=O)c1scc(C)c1NC(=O)c1ccc(Cl)cc1 ?
TRUE

# fetch the recorded call for O=c1c2cc3c(=O)n(-c4ccccc4O)c(=O)c3cc2c(=O)n1-c1ccccc1O here
FALSE

How was COc1ccc(OC)c(C(=O)Nc2c(O)ccc3ccccc23)c1 classified in this test?
TRUE

Which outcome did this test record for the compound O=c1[nH]c(O)c(/C=C2\C=Nc3ccc(Br)cc32)[nH]1 ?
TRUE
